Tested on: NCI/ADR-RES ovarian
test details: NCI-60 one-dose screen, 48 h
conditions: 10 µM unless noted
This is part of a sample that, as a whole, favours compounds with a hit. Of some 83,000 tested, about 20% had one in any assay. Calls of active or inactive are those of the source. How the source made its calls: active means growth percent below 10; inactive means the rest.
Field 'call' accepts 1 = active, 0 = inactive

smi=N=C(N)c1ccc(-c2ccc(-c3ccc(Cl)cc3)o2)o1 class_name=1
smi=O=C1Nc2ccc(F)cc2/C1=C\c1nc(-c2ccccc2F)n2ccccc12 class_name=0
smi=O=C1NC(=C(Cl)Cl)/C(=N/S(=O)(=O)NCCc2c[nH]c3ccccc23)N1 class_name=0

Prompt: In this assay, the call recorded for `COc1cc(/C=C/c2cc(/C=C/c3ccc(O)c(OC)c3)n(C(=O)Nc3ccc(F)cc3)n2)ccc1O` was what?
Response: 0

Prompt: In this assay, the call recorded for `O[C@@H](c1cc(C(F)(F)F)nc2c(C(F)(F)F)cccc12)[C@H]1CCCCN1` was what?
Response: 0

====

Tested on: NCI-H23 lung
test details: NCI-60 one-dose screen, 48 h (100 = growth as untreated, 0 = no growth, -100 = all killed)
conditions: 10 µM unless noted
Compounds without any hit were thinned out: in the full panel of roughly 83,000, 20% have a hit.
value kind: growth (%)
Kindly answer with a numeric value in %, unit omitted.

Reference set (6 entries):
compound="COc1ccc(C2=NN(C(=O)c3cc(OC)c(OC)c(OC)c3)C(c3ccc(N(C)C)cc3)C2)cc1 (stereo not given)" recorded_result=26.4
compound=Cc1cc(N2CCCCC2)nc(N2CCN(CC(=O)Nc3ccc4c(ccn4Cc4ccccc4)c3)CC2)n1 recorded_result=59.2
compound=O=C1NC(=C(Cl)Cl)/C(=N/S(=O)(=O)NCCc2c[nH]c3ccccc23)N1 recorded_result=97.4
compound=COc1cc2cc(Oc3ccc(NC(=O)Nc4ccccc4)cc3)c(C)nc2cc1OCCN1CCCCC1 recorded_result=96.5
compound=CS(=O)(=O)Nc1cncc(-c2ccc3ncnc(Nc4ccc(F)c(Cl)c4)c3c2)c1 recorded_result=33.1
compound=COc1ccc2[nH]cc(-c3nc(-c4cn(C)c5ccncc45)cs3)c2c1 recorded_result=93.9

Given item `CCOc1ccc(/C=N\N=C\c2ccc(OCC)cc2)cc1` , the value recorded as its growth is 79.5

Given item `Cc1cc(C)c(-c2c(O)c(Br)c(-c3c(C)cc(C)c(Br)c3C)c(O)c2Br)c(C)c1Br` , the value recorded as its growth is 43.7

Given item `O=C(NCc1ccccc1O)c1cccc2ccccc12` , the value recorded as its growth is 47.8

Given item CC(C)CCC[C@@H](C)C1CCC2C3CCC4=C/C(=N/OCCN(C)C)CC[C@]4(C)C3CC[C@@]21C (stereo not given in full) , the value recorded as its growth is 84.7

====

# maps each entry to its growth
Tested on: HCT-116 colon
test details: NCI-60 one-dose screen, 48 h (100 = growth as untreated, 0 = no growth, -100 = all killed)
conditions: 10 µM unless noted
This is part of a sample that, as a whole, favours compounds with a hit. Of some 83,000 tested, about 20% had one in any assay. The source made the active and inactive calls. How the source made its calls: active means growth percent below 10; inactive means the rest.

Reference set (5 entries):
molecule="CO[C@H](C(=O)[C@@H](O)[C@@H](C)O)[C@@H]1Cc2cc3cc(O[C@H]4C[C@@H](O[C@H]5C[C@@H](O)[C@H](O)C(C)O5)[C@H](O)C(C)O4)c(C)c(O)c3c(O)c2C(=O)[C@H]1O[C@H]1C[C@@H](O[C@H]2C[C@@H](O[C@H]3C[C@@H](OC)[C@H](O)C(C)O3)[C@@H](O)C(C)O2)C(O)(O)C(C)O1 (stereo partly drawn)" value_kind=growth recorded_result="6.1% (active)"
molecule=C/C(C=O)=C\c1ccc2c(c1)OCO2 value_kind=growth recorded_result="108% (inactive)"
molecule=CN1CCN(Cc2ccc(NC(=O)c3cncc(C#Cc4cnn5ccccc45)c3)cc2C(F)(F)F)CC1 value_kind=growth recorded_result="4.92% (active)"
molecule=COc1cc(C(=O)c2c(N)ncn2-c2ccccc2)cc(OC)c1OC value_kind=growth recorded_result="90.3% (inactive)"
molecule="COc1cc(N2C(=O)[C@H](c3ccccc3)C2c2ccc(SC)cc2)cc(OC)c1OC (stereo partly drawn)" value_kind=growth recorded_result="0.933% (active)"

Query `CC(C)c1ccc(-n2c(=S)[nH]c3sc4c(c3c2=O)CCC(=O)C4)cc1` on HCT-116 colon; growth returned: 53.5% (inactive)

Query `Cc1ncc(C(=O)Nc2ccc(CN3CCN(C)CC3)c(C(F)(F)F)c2)cc1C#Cc1cnc(N)c2ccncc12` on HCT-116 colon; growth returned: -87.6% (active)

Query `O=C(CSc1nnc2sc(Nc3cccc(Cl)c3)nn12)c1ccc(F)cc1` on HCT-116 colon; growth returned: 85.8% (inactive)

====

Test system: SF-295 CNS
test details: NCI-60 one-dose screen, 48 h
conditions: 10 µM unless noted
This is part of a sample that, as a whole, favours compounds with a hit. Of some 83,000 tested, about 20% had one in any assay. Active and inactive are the calls of the source. Rule for the calls: active = growth percent below 10; inactive = the rest.
Field 'call' accepts 1 (yes) (active), 0 (no) (inactive)

compound=COc1cccc(OC)c1Oc1c(-c2nc3ccccc3s2)c(C)nn1-c1ccccc1 class_name="0 (no)"
compound="COc1ccc(C(c2cc(OC)c(OC)c(OC)c2)N2CCN(Cc3ccccc3)CC2)cc1 (stereo not drawn)" class_name="0 (no)"
compound=C=C(CN1CC=CCC1)[C@@H]1CC[C@]2(CO)CC[C@]3(C)[C@H](CC[C@@H]4[C@@]5(C)CC[C@H](O)C(C)(C)[C@@H]5CC[C@]43C)[C@@H]12 class_name="0 (no)"
compound=Cc1ncc(C(=O)Nc2ccc(CN3CCN(C)CC3)c(C(F)(F)F)c2)cc1C#Cc1cnc(N)c2ccncc12 class_name="1 (yes)"
compound="COc1ccc(C2=Nc3c(N)ncnc3NC(c3cccc(Nc4ccnc5cc(C(F)(F)F)ccc45)c3)C2)cc1 (stereo not drawn)" class_name="0 (no)"

Prompt: In this assay, the call recorded for `O=C(/C=C/c1ccccc1)Nc1ncc(Cc2ccccc2)s1` was what?
Response: 1 (yes)

Prompt: In this assay, the call recorded for `COc1ccc2nc3ccccc3c(NCc3ccc(F)cc3)c2c1` was what?
Response: 0 (no)

Prompt: In this assay, the call recorded for `O=C(Nc1ccccc1)c1sc(-c2ccccc2)cc1O` was what?
Response: 0 (no)

Prompt: In this assay, the call recorded for `COc1ccc(C/C(C)=C(\c2ccc(O)cc2)c2ccc(OCCN3CCCC3)cc2)cc1` was what?
Response: 0 (no)

Prompt: In this assay, the call recorded for `N#C/C(=C\c1ccc(Br)cc1)c1cc2ccccc2[nH]1` was what?
Response: 0 (no)

Prompt: In this assay, the call recorded for `O=C(Nc1cccnc1Nc1ccc(Cl)cc1)c1cn(Cc2ccc(F)cc2)nn1` was what?
Response: 0 (no)

Prompt: In this assay, the call recorded for O=c1[nH]cnc2c1C(c1ccc(Br)cc1)c1sc3c(F)cccc3c1O2 (stereo not drawn) was what?
Response: 0 (no)

Prompt: In this assay, the call recorded for `Cc1nn(-c2ccccc2)c(N2CCCCC2)c1/C=N/NC(=O)Cn1c(=O)sc2ccccc21` was what?
Response: 0 (no)

Prompt: In this assay, the call recorded for `C#Cc1cccc(Nc2nc3ccc([N+](=O)[O-])cc3nc2Nc2cccc(C#C)c2)c1` was what?
Response: 1 (yes)

Prompt: In this assay, the call recorded for `Cc1ccc(C)n1/C=C/n1c(C)ccc1C` was what?
Response: 0 (no)

Prompt: In this assay, the call recorded for `O=C1/C(=C/c2ccc(C(F)(F)F)cc2)COc2ccc(O)cc21` was what?
Response: 0 (no)

====

System: SK-MEL-2 melanoma
test details: NCI-60 one-dose screen, 48 h
conditions: 10 µM unless noted
Method: Growth inhibition of the SK-MEL-2 human tumor cell line is measured as a screen for anti-cancer activity. Cells are grown in 96 well plates and exposed to the test compound for 48 hours. Compounds are tested at a single concentration, which is 10^-5 M for most compounds. The reported endpoint is percent growth (GI% or GIPRCNT), where numbers from 0 - 100% represent growth inhibition, and numbers from -100% - 0 represent cell death. For example, a value of 40 represents 60% growth inhibition. […]
The panel holds about 83,000 compounds, 20% with a hit somewhere; the sample as a whole holds those more often. Calls of active or inactive are those of the source. How the source made its calls: active means growth percent below 10; inactive means the rest.
Field 'call' accepts active, inactive

Solved entries:
smi=CN1CCN(Cc2ccc(NC(=O)c3cncc(C#Cc4cncc5ncccc45)c3)cc2C(F)(F)F)CC1 class_name=active
smi=COc1ccc2cc(Cn3cc[n+](Cc4ccc5ccccc5c4)c3)ccc2c1 class_name=active
smi=C/C(=C(/c1ccc(Cl)cc1)c1ccc(OCCCN(C)C)cc1)c1ccc(Cl)cc1 class_name=inactive

Now for a further compound.
Prompt: In this assay, the call recorded for `CC1(C)CC[C@]2(C(=O)N3CCOCC3)CC[C@]3(C)C(=CC[C@@H]4[C@@]5(C)C/C(=C/c6ccncc6)C(=O)C(C)(C)[C@@H]5CC[C@]43C)[C@@H]2C1` was what?
Response: active
